Target: T1, human LAG-3 overexpressed on cells (human, UniProt P18627 23-525)
T1 sequence (looked up): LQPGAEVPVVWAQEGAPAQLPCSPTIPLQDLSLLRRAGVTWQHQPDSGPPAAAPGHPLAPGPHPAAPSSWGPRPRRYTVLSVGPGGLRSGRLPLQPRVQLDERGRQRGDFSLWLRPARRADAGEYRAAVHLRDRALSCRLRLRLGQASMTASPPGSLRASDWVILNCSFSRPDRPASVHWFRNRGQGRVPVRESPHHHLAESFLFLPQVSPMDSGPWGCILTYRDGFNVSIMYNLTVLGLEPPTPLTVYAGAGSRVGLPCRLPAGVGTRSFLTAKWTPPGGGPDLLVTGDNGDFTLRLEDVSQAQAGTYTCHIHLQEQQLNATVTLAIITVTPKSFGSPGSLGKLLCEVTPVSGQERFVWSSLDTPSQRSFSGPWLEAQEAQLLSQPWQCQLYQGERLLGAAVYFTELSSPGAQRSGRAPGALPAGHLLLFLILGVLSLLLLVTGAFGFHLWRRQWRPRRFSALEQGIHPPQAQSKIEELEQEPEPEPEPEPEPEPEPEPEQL
Experiment: cell-based or functional assay
Property Measured: EC50 (µg/ml), LAG3/MHC class II Blockade bioassay (µg/mL)

• LAG3-1E09_LS_1H04 (antibody, V domains shown, Tested as full IgG) VH: EVQLVESGGDLVKPGGSLRLSCAASGFSFSDHYMNWIRQAPGKGLEWVAYIDTSATYIYYADSVKGRFTISRDNAKNSLYLQMNSLRAEDTAVYYCARDNWGSLDYWGQGTLVTVSS VL: DIQMTQSPSSLSASAGDRVTITCQASQDIRNSLSWYQQKPGKAPKLLIYDASNLETGVPSRFSGSGSGTYFTFTISSLQPEDFATYYCQQYDNVPVTFGGGTKLEIK = 0.284
• LAG3-1E09_AM_1F09 (antibody, V domains shown, Tested as full IgG) VH: EVQLVESGGDLVKPGGSLRLSCAASGFNFSDHYMNWIRQAPGKGLEWVAYIDTSATYIYYADSVKGRFTISRDNAKNSLYLQMNSLRAEDTAVYYCARDNWGSLDYWGQGTLVTVSS VL: DIQMTQSPSSLSASVGDRVTITCQASQDIRNYLGWYQQKPGKAPNLLIYDASTLETGVPSRFSGSGSGTDFTLAISSLQPEDFATYYCQQSYSTPYTFGQGTKLEIK = 0.488
• LAG3-1E09_FR_1G07 (antibody, V domains shown, Tested as full IgG) VH: EVQLVESGGGLVKPGGSLRLSCAASGFSFSDHYMNWVRQAPGKGLEWVAYIDTSATYIYYADSVKGRFTISRDNAKNSLYLQMNSLRAEDTAVYYCARDNWGSLDYWGQGTLVTVSS VL: DIQMTQSPSSLSASVGDRVTITCRASQGISTYLNWYQQKPGKAPKLLIYDASNLETGVPSRFSGSGSGTDFTLTISGLQPDDFALYYCQQSYTTPYSFGPGTKVEIK = 0.242
